All figures here come from patent US10611750B2.

biological target: BRD4 Bromodomain 1 (BRD4 BD1) (Homo sapiens); construct: 44-168 and BRD4 BD2; test: AlphaScreen binding assay, BRD4 BD1; conditions: His-tagged BRD4 BD1 50 nM, biotinylated H4 (1-21) K5/8/12/16 tetra-acetylated peptide 50 nM, compounds listed under IC50 range headings
pIC50: −log10 of the molar value.
metric_name: pIC50

Examples with their reported pIC50 follow.
{"compound": "COC(=O)N1c2ccc(-c3cnn(C4CC4)c3)c(OCC(C)(C)CO)c2CC[C@@H]1C", "result": "6.00 to 7.00"}
{"compound": "CC(=O)N1c2ccc(-c3cnn(C4CC4)c3)c(OCc3ccccc3)c2CC[C@@H]1C", "result": "5.00 to 6.00"}
{"compound": "CC(=O)N1c2ccc(-c3cnn(CC(C)(C)O)c3)c(Oc3ncc(F)cn3)c2CC[C@@H]1C", "result": "6.00 to 7.00"}
{"compound": "COC(=O)N1c2ccc(-c3cnn(C4CC4)c3)c(OCC3(F)COC3)c2CC[C@@H]1C", "result": "5.00 to 6.00"}
{"compound": "COC(=O)N1c2ccc(-c3csc(C4(O)CNC4)n3)c(OC3CCC3)c2CC[C@@H]1C", "result": "5.00 to 6.00"}

For `C[C@H]1CCc2c(ccc(-c3cnn(C4CCNCC4)c3)c2Oc2cccc(Cl)n2)N1C(=O)C1CC1` the compound record lists pIC50 as 5.00 to 6.00

For `COC(=O)N1c2ccc(-n3cc(N4CCNCC4)cn3)c(Oc3ccccc3)c2CC[C@@H]1C` the compound record lists pIC50 as 5.00 to 6.00

For `COC(=O)N1c2ccc(-c3cnn(C4CC4)c3)c(Oc3ncc(C(F)(F)F)cc3F)c2CC[C@@H]1C` the compound record lists pIC50 as 5.00 to 6.00

For `CC(=O)N1c2ccc(-c3cnn(C4CC4)c3)c(OC[C@H]3CCNC3)c2CC[C@@H]1C` the compound record lists pIC50 as 6.00 to 7.00

For `CC(=O)N1c2ccc(-c3cnn(C4CC4)c3)c(OCc3ccncc3)c2CC[C@@H]1C` the compound record lists pIC50 as 5.00 to 6.00

For `CCCOc1c(-c2ccc(S(=O)(=O)CC)cc2)ccc2c1CC[C@H](C)N2C(C)=O` the compound record lists pIC50 as 5.00 to 6.00

For `COc1cccc(Oc2c(-c3cn(C)nn3)ccc3c2CC[C@H](C)N3C(=O)C2CC2)c1` the compound record lists pIC50 as 5.00 to 6.00

For `CC(=O)N1c2ccc(-c3ccc(S(C)(=O)=O)cn3)c(OCC(=O)N(C)C)c2CC[C@@H]1C` the compound record lists pIC50 as ≤ 5.00

For COC(=O)N1c2ccc(-c3cnn(C4CCCS(=O)(=O)C4)c3)c(OC3CCC3)c2CC[C@@H]1C (stereo partly drawn) the compound record lists pIC50 as 6.00 to 7.00

For `CC(=O)N1c2ccc(-c3cnn(C4CC4)c3)c(Oc3ncccc3C(N)=O)c2CC[C@@H]1C` the compound record lists pIC50 as 6.00 to 7.00

For `CC(=O)N1c2ccc(-c3cnn(C4CCNCC4)c3)c(OCC(C)C)c2CC[C@@H]1C` the compound record lists pIC50 as > 7.00
